system: Hepatitis C virus; test: Inhibition of HCV 1b BK delta21 NS5B delta21 polymerase; set-up: species or system Hepatitis C virus subtype 1b
Value type: IC50 (nM)

For orientation, consider the following solved cases.
CC(C)CCn1nc(-c2ccccc2)c(O)c(C2=CS(=O)(=O)c3cc(NS(C)(=O)=O)ccc3N2)c1=O :: 250
CC(C)CCn1c(=O)c(C2=CS(=O)(=O)c3cc(NS(C)(=O)=O)ccc3N2)c(O)c2cccn21 :: 27
Cc1ccc(-c2nn(Cc3ccccc3)c(=O)c(C3=CS(=O)(=O)c4cc(NS(C)(=O)=O)ccc4N3)c2O)s1 :: 1600

a: CC(C)CCn1c(=O)c(C2=CS(=O)(=O)c3cc(N(C)S(C)(=O)=O)ccc3N2)c(O)c2cccn21
b: Cc1ccc(-c2nn(Cc3ccccc3)c(=O)c(C3=CS(=O)(=O)c4cc(N(C)S(C)(=O)=O)ccc4N3)c2O)s1
Problem: Given the entries a and b , determine which has the lower reported IC50. Refer to your chosen item by its label in the answer. a
(a: 440 nM, b: 9000 nM)

====

assay: Oral bioavailability in cynomolgus monkey at 1 mg/kg; format: ADME, organism-based, Macaca fascicularis; settings: in vivo
Value type: bioavailability (%)

For orientation, consider the following solved cases.
CC(C)(C)CCn1c(=O)c(C2=CS(=O)(=O)c3cc(NS(C)(=O)=O)ccc3N2)c(O)c2cccn21 :: 1
Cc1ccc(-c2nn(Cc3ccccc3)c(=O)c(C3=CS(=O)(=O)c4ccccc4N3)c2O)s1 :: 13
Cc1ccc(-c2nn(Cc3ccccc3)c(=O)c(C3=Nc4ccccc4S(=O)(=O)N3)c2O)s1 :: 33

A: CC(C)CCn1nc(-c2ccccc2)c(O)c(C2=CS(=O)(=O)c3cc(NS(C)(=O)=O)ccc3N2)c1=O
B: CC(C)CCn1nc(-c2cccs2)c(O)c(C2=CS(=O)(=O)c3cc(NS(C)(=O)=O)ccc3N2)c1=O
C: CC(C)CCn1c(=O)c(C2=Nc3ccc(NS(C)(=O)=O)cc3S(=O)(=O)N2)c(O)c2cccn21
Please produce an ascending ranking of these compounds based on bioavailability. Answer format: the labels, ordered as requested. C, A, B
(C: 0%, A: 1%, B: 4%)

P: CC(C)CCn1c(=O)c(C2=CS(=O)(=O)c3cc(N(C)S(C)(=O)=O)ccc3N2)c(O)c2cccn21
Q: CC(C)CCn1nc(-c2cccs2)c(O)c(C2=NS(=O)(=O)c3cc(N(C)S(C)(=O)=O)ccc3N2)c1=O
Lab note: record which item had the higher bioavailability, P or Q . Refer to your chosen item by its label in the answer. Q

====

assay: Metabolic stability in human liver microsomes assessed as half life; assay type: ADME, Microsome
half-life values, listed per item

For orientation, consider the following solved cases.
CC(C)CCn1c(=O)c(C2=CS(=O)(=O)c3cc(NS(C)(=O)=O)ccc3N2)c(O)c2cccn21 :: > 1 h
CS(=O)(=O)Nc1ccc2c(c1)S(=O)(=O)C=C(c1c(O)c(-c3cccs3)nn(Cc3ccccc3)c1=O)N2 :: > 1 h
CS(=O)(=O)Nc1ccc2c(c1)S(=O)(=O)C=C(c1c(O)c(-c3cccs3)nn(CC3CCCC3)c1=O)N2 :: 0.717 h

Kindly consider the entry below.
State the recorded half-life for this entry: CS(=O)(=O)Nc1ccc2c(c1)S(=O)(=O)C=C(c1c(O)c(-c3cccs3)nn(CC3CC3)c1=O)N2 > 1 h
